Test system: Radical scavenging activity
ASSAY_EXPLANATION: Antioxidant activity assessed as DPPH free radical scavenging activity at 20 ug/ml by spectrophotometry
Type: functional
Assign TRUE whenever Activity does not fall below 80%; assign FALSE whenever it does.

COMPOUND: O=c1[nH]c2c(c(=O)[nH]1)C(c1ccccc1[N+](=O)[O-])Nc1nc3c(cc1-2)-c1[nH]c(=O)[nH]c(=O)c1C(c1ccccc1[N+](=O)[O-])N3 (centres undefined)
TESTED_SYSTEM: Radical scavenging activity
CLASS_LABEL: FALSE
--
COMPOUND: O=c1[nH]c(=S)[nH]c2c1C(c1ccccc1[N+](=O)[O-])Nc1nc3c(cc1-2)-c1[nH]c(=S)[nH]c(=O)c1C(c1ccccc1[N+](=O)[O-])N3 (centres undefined)
TESTED_SYSTEM: Radical scavenging activity
CLASS_LABEL: FALSE
--
COMPOUND: O=c1[nH]c(=S)[nH]c2c1C(c1ccccc1Cl)Nc1cc3c(cc1-2)NC(c1ccccc1Cl)c1c-3[nH]c(=S)[nH]c1=O (centres undefined)
TESTED_SYSTEM: Radical scavenging activity
CLASS_LABEL: TRUE
--
COMPOUND: O=c1[nH]c2c(c(=O)[nH]1)C(c1ccccc1)Nc1nc3c(cc1-2)-c1[nH]c(=O)[nH]c(=O)c1C(c1ccccc1)N3 (centres undefined)
TESTED_SYSTEM: Radical scavenging activity
CLASS_LABEL: FALSE
--
COMPOUND: O=c1[nH]c2c(c(=O)[nH]1)C(c1ccc(Cl)cc1)Nc1cc3c(cc1-2)NC(c1ccc(Cl)cc1)c1c-3[nH]c(=O)[nH]c1=O (centres undefined)
TESTED_SYSTEM: Radical scavenging activity
CLASS_LABEL: TRUE
--
COMPOUND: O=c1[nH]c(=S)[nH]c2c1C(c1ccccc1)Nc1nc3c(cc1-2)-c1[nH]c(=S)[nH]c(=O)c1C(c1ccccc1)N3 (centres undefined)
TESTED_SYSTEM: Radical scavenging activity
CLASS_LABEL: FALSE

Now, please, on to the next compound.
IN: Exam item: decide whether the reported Activity for O=c1[nH]c2c(c(=O)[nH]1)C(c1cccc([N+](=O)[O-])c1)Nc1nc3c(cc1-2)-c1[nH]c(=O)[nH]c(=O)c1C(c1cccc([N+](=O)[O-])c1)N3 (centres undefined) is at least 80%.
OUT: FALSE

----------
ASSAY_EXPLANATION: Antioxidant activity assessed as reduction of ferric ion to ferrous ion by FRAP assay
Assay type: functional
Would you mind telling me the reported IC50 of each entry?
Answers are plain numbers, in µg/mL.

Illustrative cases are given below, each with its answer.
COMPOUND: O=c1[nH]c(=S)[nH]c2c1C(c1ccc(Cl)cc1)Nc1cc3c(cc1-2)NC(c1ccc(Cl)cc1)c1c-3[nH]c(=S)[nH]c1=O (stereo not drawn)
READING_UNIT: µg/mL
NUMERIC_READOUT: 24.11
--
COMPOUND: O=c1[nH]c(=S)[nH]c2c1C(c1ccc([N+](=O)[O-])cc1)Nc1cc3c(cc1-2)NC(c1ccc([N+](=O)[O-])cc1)c1c-3[nH]c(=S)[nH]c1=O (stereo not drawn)
READING_UNIT: µg/mL
NUMERIC_READOUT: 25.21

Consider the record given below.
# IC50 (compound: O=c1[nH]c(=S)[nH]c2c1C(c1ccccc1)Nc1cc3c(cc1-2)NC(c1ccccc1)c1c-3[nH]c(=S)[nH]c1=O (stereo not drawn) ) is 32.1

----------
ASSAY_EXPLANATION: Antioxidant activity assessed as reduction of ferric ion to ferrous ion by FRAP assay
Type: functional
Would you mind telling me the reported IC50 of each entry?
Numbers only, in µg/mL.

Illustrative cases are given below, each with its answer.
COMPOUND: O=c1[nH]c(=S)[nH]c2c1C(c1ccccc1[N+](=O)[O-])Nc1nc3c(cc1-2)-c1[nH]c(=S)[nH]c(=O)c1C(c1ccccc1[N+](=O)[O-])N3 (stereo not drawn)
IC50, µg/mL: 30.47
--
COMPOUND: O=c1[nH]c2c(c(=O)[nH]1)C(c1cccc([N+](=O)[O-])c1)Nc1cc3c(cc1-2)NC(c1cccc([N+](=O)[O-])c1)c1c-3[nH]c(=O)[nH]c1=O (stereo not drawn)
IC50, µg/mL: 33.28
--
COMPOUND: O=c1[nH]c(=S)[nH]c2c1C(c1ccccc1)Nc1nc3c(cc1-2)-c1[nH]c(=S)[nH]c(=O)c1C(c1ccccc1)N3 (stereo not drawn)
IC50, µg/mL: 33.5

State the recorded IC50 for every item in the following list.
1. O=c1[nH]c2c(c(=O)[nH]1)C(c1ccccc1[N+](=O)[O-])Nc1cc3c(cc1-2)NC(c1ccccc1[N+](=O)[O-])c1c-3[nH]c(=O)[nH]c1=O (stereo not drawn)
2. O=c1[nH]c(=S)[nH]c2c1C(c1ccccc1[N+](=O)[O-])Nc1cc3c(cc1-2)NC(c1ccccc1[N+](=O)[O-])c1c-3[nH]c(=S)[nH]c1=O (stereo not drawn)
3. O=c1[nH]c(=S)[nH]c2c1C(c1cccc([N+](=O)[O-])c1)Nc1nc3c(cc1-2)-c1[nH]c(=S)[nH]c(=O)c1C(c1cccc([N+](=O)[O-])c1)N3 (stereo not drawn)

OUT:
1: 29.08; 2: 29.5; 3: 34.93

State the recorded IC50 for every item in the following list.
1. O=c1[nH]c2c(c(=O)[nH]1)C(c1ccccc1)Nc1cc3c(cc1-2)NC(c1ccccc1)c1c-3[nH]c(=O)[nH]c1=O (stereo not drawn)
2. O=c1[nH]c2c(c(=O)[nH]1)C(c1cccc([N+](=O)[O-])c1)Nc1nc3c(cc1-2)-c1[nH]c(=O)[nH]c(=O)c1C(c1cccc([N+](=O)[O-])c1)N3 (stereo not drawn)

OUT:
1. 32.76
2. 34.9

----------
Test system: Radical scavenging activity
ASSAY_EXPLANATION: Antioxidant activity assessed as DPPH free radical scavenging activity at 20 ug/ml by spectrophotometry
Assay type: functional
OBSERVABLE: Activity (%)
Give bare numbers, in %.

MOLECULE: O=c1[nH]c2c(c(=O)[nH]1)C(c1ccc(Cl)cc1)Nc1nc3c(cc1-2)-c1[nH]c(=O)[nH]c(=O)c1C(c1ccc(Cl)cc1)N3 (configuration not stated)
TESTED_SYSTEM: Radical scavenging activity
Activity / %: 81.1
--
MOLECULE: O=c1[nH]c(=S)[nH]c2c1C(c1ccccc1Cl)Nc1nc3c(cc1-2)-c1[nH]c(=S)[nH]c(=O)c1C(c1ccccc1Cl)N3 (configuration not stated)
TESTED_SYSTEM: Radical scavenging activity
Activity / %: 80.6
--
MOLECULE: O=c1[nH]c2c(c(=O)[nH]1)C(c1cccc([N+](=O)[O-])c1)Nc1cc3c(cc1-2)NC(c1cccc([N+](=O)[O-])c1)c1c-3[nH]c(=O)[nH]c1=O (configuration not stated)
TESTED_SYSTEM: Radical scavenging activity
Activity / %: 81.7

State the recorded Activity for every item in the following list.
1. O=c1[nH]c2c(c(=O)[nH]1)C(c1ccc([N+](=O)[O-])cc1)Nc1cc3c(cc1-2)NC(c1ccc([N+](=O)[O-])cc1)c1c-3[nH]c(=O)[nH]c1=O (configuration not stated)
2. O=c1[nH]c2c(c(=O)[nH]1)C(c1ccccc1Cl)Nc1nc3c(cc1-2)-c1[nH]c(=O)[nH]c(=O)c1C(c1ccccc1Cl)N3 (configuration not stated)
3. O=c1[nH]c(=S)[nH]c2c1C(c1ccc(Cl)cc1)Nc1nc3c(cc1-2)-c1[nH]c(=S)[nH]c(=O)c1C(c1ccc(Cl)cc1)N3 (configuration not stated)

OUT:
1. 80.9
2. 80.8
3. 80.9

State the recorded Activity for every item in the following list.
1. O=c1[nH]c(=S)[nH]c2c1C(c1ccccc1[N+](=O)[O-])Nc1cc3c(cc1-2)NC(c1ccccc1[N+](=O)[O-])c1c-3[nH]c(=S)[nH]c1=O (configuration not stated)
2. O=c1[nH]c(=S)[nH]c2c1C(c1cccc([N+](=O)[O-])c1)Nc1nc3c(cc1-2)-c1[nH]c(=S)[nH]c(=O)c1C(c1cccc([N+](=O)[O-])c1)N3 (configuration not stated)
3. O=c1[nH]c2c(c(=O)[nH]1)C(c1ccccc1[N+](=O)[O-])Nc1cc3c(cc1-2)NC(c1ccccc1[N+](=O)[O-])c1c-3[nH]c(=O)[nH]c1=O (configuration not stated)
4. O=c1[nH]c(=S)[nH]c2c1C(c1ccc([N+](=O)[O-])cc1)Nc1cc3c(cc1-2)NC(c1ccc([N+](=O)[O-])cc1)c1c-3[nH]c(=S)[nH]c1=O (configuration not stated)
5. O=c1[nH]c2c(c(=O)[nH]1)C(c1ccc([N+](=O)[O-])cc1)Nc1nc3c(cc1-2)-c1[nH]c(=O)[nH]c(=O)c1C(c1ccc([N+](=O)[O-])cc1)N3 (configuration not stated)
6. O=c1[nH]c(=S)[nH]c2c1C(c1ccccc1)Nc1cc3c(cc1-2)NC(c1ccccc1)c1c-3[nH]c(=S)[nH]c1=O (configuration not stated)
7. O=c1[nH]c(=S)[nH]c2c1C(c1ccc([N+](=O)[O-])cc1)Nc1nc3c(cc1-2)-c1[nH]c(=S)[nH]c(=O)c1C(c1ccc([N+](=O)[O-])cc1)N3 (configuration not stated)
8. O=c1[nH]c(=S)[nH]c2c1C(c1cccc([N+](=O)[O-])c1)Nc1cc3c(cc1-2)NC(c1cccc([N+](=O)[O-])c1)c1c-3[nH]c(=S)[nH]c1=O (configuration not stated)

OUT:
1. 82
2. 70.1
3. 82.7
4. 82.3
5. 74.2
6. 79.6
7. 74
8. 79.3
